Target: T1, B3GNT2 (Homo sapiens, UniProt Q9NY97)
T1 construct: The respective ORFs of candidate genes [CD274 (NM_014143), MCL1 (NM_021960), JUNB (NM_002229), and B3GNT2 (NM_006577)] were synthesized; expressed in transfected cells; host or cells: A375 melanoma cells (lentiviral ORF overexpression)
T1 sequence (Q9NY97 1-397): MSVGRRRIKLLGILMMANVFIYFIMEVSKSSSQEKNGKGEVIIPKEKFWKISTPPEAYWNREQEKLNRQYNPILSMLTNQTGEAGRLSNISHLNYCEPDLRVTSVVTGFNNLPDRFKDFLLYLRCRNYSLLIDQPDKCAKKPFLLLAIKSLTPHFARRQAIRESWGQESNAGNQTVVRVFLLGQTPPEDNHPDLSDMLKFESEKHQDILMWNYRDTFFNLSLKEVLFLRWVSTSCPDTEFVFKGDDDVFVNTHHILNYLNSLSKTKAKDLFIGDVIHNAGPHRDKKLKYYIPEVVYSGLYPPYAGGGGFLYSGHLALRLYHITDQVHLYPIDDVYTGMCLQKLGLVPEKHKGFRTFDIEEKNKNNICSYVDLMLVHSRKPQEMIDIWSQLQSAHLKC
Assay: Co-IP of FLAG-tagged B3GNT2 followed by mass spectrometry
Format: cell-based
Set-up: unit not given here
Details: Co-IP followed by mass spectrometry of B3GNT2; C-term tag, IgG pull-down
Measured metric: C-term IgG

Notebook: TMEM59 (protein) EAFDSVLGDTASCHRACQLTYPLHTYPKEEELYACQRGCRLFSICQFVDDGIDLNRTKLECESACTEAYSQSDEQYACHLGCQNQLPFAELRQEQLMSLMPKMHLLFPLTLVRSFWSDMMDSAQSFITSSWTFYLQADDGKIVIFQSKPEIQYAPHLEQEPTNLRESSLSKMSYLQMRNSQAHRNFLEDGESDGFLRCLSLNSGWILTTTLVLSVMVLLWICCATVATAVEQYVPSEKLSIYGDLEFMNEQKLNRYPASSLVVVRSKTEDHEEAGPLPTKVNLAHSEI , C-term IgG read as 0

Notebook: PURA (protein) ADRDSGSEQGGAALGSGGSLGHPGSGSGSGGGGGGGGGGGGSGGGGGGAPGGLQHETQELASKRVDIQNKRFYLDVKQNAKGRFLKIAEVGAGGNKSRLTLSMSVAVEFRDYLGDFIEHYAQLGPSQPPDLAQAQDEPRRALKSEFLVRENRKYYMDLKENQRGRFLRIRQTVNRGPGLGSTQGQTIALPAQGLIEFRDALAKLIDDYGVEEEPAELPEGTSLTVDNKRFFFDVGSNKYGVFMRVSEVKPTYRNSITVPYKVWAKFGHTFCKYSEEMKKIQEKQREKRAACEQLHQQQQQQQEETAAATLLLQGEEEGEED , C-term IgG read as 0

Notebook: C1orf68 (protein) MCDQQKQPQFPPSCVKGSGLGAGQGSNGASVKCPVPCQTQTVCVTGPAPCPTQTYVKYQVPCQTQTYVKCPAPCQRTYVKYPTPCQTYVKCPAPCQTTYVKCPTPCQTYVKCPAPCQMTYIKSPAPCQTQTCYVQGASPCQSYYVQAPASGSTSQYCVTDPCSAPCSTSYCCLAPRTFGVSPLRRWIQRPQNCNTGSSGCCENSGSSGCCGSGGCGCSCGCGSSGCCCLGIIPMRSRGPACCDHEDDCCC , C-term IgG read as 4

Attention now shifts to the item below.
Notebook: TAGLN (protein) ANKGPSYGMSREVQSKIEKKYDEELEERLVEWIIVQCGPDVGRPDRGRLGFQVWLKNGVILSKLVNSLYPDGSKPVKVPENPPSMVFKQMEQVAQFLKAAEDYGVIKTDMFQTVDLFEGKDMAAVQRTLMALGSLAVTKNDGHYRGDPNWFMKKAQEHKREFTESQLQEGKHVIGLQMGSNRGASQAGMTGYGRPRQIIS , C-term IgG read as 0
